// molecules with IC50 on UniProt:P43405, multi-source literature

Request body: readout IC50, system UniProt:P43405, query CC1(C)C(=O)Nc2cc(Nc3nc4c(NCC5CCCNC5)nccn4n3)ccc21 (stereo not drawn) . Return the value.
300 to 3000 nM

One more molecule: `COc1cc(Nc2nc3c(-c4ccccc4-c4ccccc4)nccn3n2)cc(OC)c1`
< 300 nM

One more molecule: `COCCCn1cc(Nc2nc(-c3cocn3)nc3cn[nH]c23)cn1`
< 10 nM

* * *

// compounds with IC50 on SYK kinase (Homo sapiens, UniProt P43405), multi-source literature

Would you kindly share the measured IC50 for `COc1ccc(C(N)=O)cc1-c1cc2nccc(-c3cc(C(N)=O)ccc3OC)c2o1` ?
300 to 3000 nM

One more compound: `COc1ccc(-c2ccnc3cc(-c4cc(OC)c(OC)c(OC)c4)oc23)c(OC)c1`
< 300 nM

One more compound: `CC(C)(C)N1CCN(c2ccc(Nc3nc(-c4cccc(NS(C)(=O)=O)c4)nc4cn[nH]c34)cc2)CC1`
100 to 1000 nM

One more compound: `COc1ccc(C(N)=O)cc1-c1cc2nccc(-c3ccnc(N[C@@H]4CCCC[C@@H]4N)c3)c2o1`
< 100 nM

One more compound: `COc1cccc2nc(Nc3cnn(C4CCOCC4)c3)c3[nH]ncc3c12`
100 to 1000 nM

One more compound: `COc1cc(Nc2nc3cncc(-c4cccc(NS(C)(=O)=O)c4)n3n2)ccc1N1CCN(C)CC1`
1000 to 5000 nM

One more compound: `N#Cc1ccc(Nc2nc3c(-c4ccccc4-c4ccccc4)nccn3n2)cc1O`
3000 to 50000 nM

One more compound: `COCCCn1cc(Nc2nc3cc(S(C)(=O)=O)ccc3c3cn[nH]c23)cn1`
10 to 100 nM

One more compound: `CCc1ccc(OC)c(-c2cc3nccc(-c4cccc(C(=O)N[C@@H]5CCCC[C@@H]5N)c4)c3o2)c1`
300 to 3000 nM

One more compound: `COc1ccc(Cl)c(-c2cc3nccc(-c4cccc(C(=O)N[C@@H]5CCCC[C@@H]5N)c4)c3o2)c1`
300 to 3000 nM

One more compound: `CC(=O)N1C[C@H](O)C[C@@H]1c1nc(-c2ccc3c(c2)NCCO3)c2cnc3[nH]ccc3n12`
10 to 30 nM

One more compound: CC1(C)C(=O)Nc2cc(Nc3nc4c(N5CCC6(CCNC6)C5)nccn4n3)ccc21 (centres unmarked)
< 100 nM

One more compound: `Fc1cc2cn[nH]c2cc1-c1nc(Nc2ccc(N3CCOCC3)cc2)c2[nH]ncc2n1`
10 to 100 nM

One more compound: COCC(O)Cn1cc(-c2ccnc3cc(-c4cc(OC)c(OC)c(OC)c4)oc23)cn1 (centres unmarked)
300 to 3000 nM

One more compound: `CC(C)OCCO[C@H]1CNc2cc(Nc3ncc(C(N)=O)c(NC4CC4)n3)ccc2OC1`
10 to 100 nM

One more compound: `COc1c(NC(=O)Nc2ccc(Oc3ccnc(N(C)C)n3)c3ccccc23)cc(C(C)(C)C)cc1P(C)(C)=O`
> 1780 nM

One more compound: `COCCCNc1nccn2nc(Nc3cc(OC)cc(OC)c3)nc12`
3000 to 50000 nM
